Would you kindly list inhibition at 100 µg/mL for each of these molecules?
Biological target: COX-2 (Homo sapiens, UniProt P35354)
Sequence (P35354 18-604): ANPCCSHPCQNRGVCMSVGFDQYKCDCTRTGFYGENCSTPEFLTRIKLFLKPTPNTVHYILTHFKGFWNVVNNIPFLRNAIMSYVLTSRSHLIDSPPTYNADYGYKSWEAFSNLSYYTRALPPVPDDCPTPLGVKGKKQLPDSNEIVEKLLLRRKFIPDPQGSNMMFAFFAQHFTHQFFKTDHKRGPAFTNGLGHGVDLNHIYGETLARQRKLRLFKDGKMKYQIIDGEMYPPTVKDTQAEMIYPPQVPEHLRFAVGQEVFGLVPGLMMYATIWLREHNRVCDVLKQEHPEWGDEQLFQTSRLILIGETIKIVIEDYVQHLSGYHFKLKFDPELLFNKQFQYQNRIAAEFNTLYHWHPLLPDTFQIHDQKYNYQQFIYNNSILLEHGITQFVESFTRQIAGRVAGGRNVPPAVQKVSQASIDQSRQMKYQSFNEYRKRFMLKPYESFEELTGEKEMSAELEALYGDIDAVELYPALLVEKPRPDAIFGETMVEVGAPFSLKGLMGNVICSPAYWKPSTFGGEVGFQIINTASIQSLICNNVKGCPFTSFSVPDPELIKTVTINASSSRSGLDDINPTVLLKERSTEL
Assay: In vitro COX inhibitory assay
Assay type: biochemical
Conditions: read-out: Inhibition of COX-2 (%)
Give bare numbers, in %.

Consider the worked cases shown below.
- MOLECULE: "CN(C)c1ccc(C2N=C(N)Nc3nc(C(=O)Nc4ccc(S(N)(=O)=O)cc4)nn32)cc1 (centres unmarked) [Compound 12]"
  TEST SYSTEM: "COX-2 (Homo sapiens, UniProt P35354)"
  inhibition at 100 µg/mL [%]: 81
- MOLECULE: "NC1=NC(c2ccco2)n2nc(C(=O)Nc3ccc(S(N)(=O)=O)cc3)nc2N1 (centres unmarked) [Compound 4]"
  TEST SYSTEM: "COX-2 (Homo sapiens, UniProt P35354)"
  inhibition at 100 µg/mL [%]: 95.1
- MOLECULE: "NC1=NC(c2ccccc2O)n2nc(C(=O)Nc3ccc(S(N)(=O)=O)cc3)nc2N1 (centres unmarked) [Compound 11]"
  TEST SYSTEM: "COX-2 (Homo sapiens, UniProt P35354)"
  inhibition at 100 µg/mL [%]: 82

Here are 2 molecules. What values of inhibition at 100 µg/mL were reported for them?
1. NC1=NC(c2ccccc2Cl)n2nc(C(=O)Nc3ccc(S(N)(=O)=O)cc3)nc2N1 (centres unmarked) [Compound 8]
2. Cc1ccccc1C1N=C(N)Nc2nc(C(=O)Nc3ccc(S(N)(=O)=O)cc3)nn21 (centres unmarked) [Compound 5]

64.8
67.2
